Tested on: U251 CNS
Use one of these outcomes when replying: yes (active), no (inactive)

INPUT: How did this test come out for COc1ccc(Cn2cc3c(c2-c2cc(OC)c(OC)c(OC)c2)CCc2c(CO)noc2-3)cc1 ?
OUTPUT: yes

INPUT: Consider next the molecule Cc1ccccc1C(C(=O)NC1CCCCC1)N(C(=O)CNc1ncccc1F)c1cccc(F)c1 (stereo not given) in the same way.
OUTPUT: no

* * *

Tested on: HOP-92 NSCLC
EXPERIMENTAL DETAILS: NCI tumour cell line growth inhibition, 48 h
VALUE KIND: TGI (µM)
One number for each entry, in µM.

Some solved cases for reference:
CC/C=C\C[C@H](O)C/C=C1/C(=O)C=C[C@@H]1C/C=C\CCCCO = 25
CC(C(=O)n1ccnc1)N1c2ccccc2Sc2ccccc21 (stereo not given) = 79.9
O=C1c2c(Cl)c(Cl)c(Cl)c(Cl)c2C(=O)C2(Cl)CC=CCC12Cl (stereo not given) = 3.87
COc1cc2c(c(OC)c1OC)-c1c(c3ccc([N+](=O)[O-])cc3c(=O)n1CCCN)C2=O = 15.8

The record that follows has no TGI shown yet.
INPUT: Using the record for CN(C)CCS(=O)(=O)Nc1cc(-c2ccc3ncc(C#N)c(Nc4ccc(F)c(Cl)c4)c3c2)cnc1Cl , report its TGI.
OUTPUT: 0.409

* * *

System: A498 renal
EXPERIMENTAL DETAILS: NCI tumour cell line growth inhibition, 48 h
Give TGI for every item shown.

Cc1sc2c(c1C)C(c1ccc(Cl)cc1)=N[C@@H](CC(=O)NCCCN1CCN(C)CC1)c1nnc(C)n1-2 = 7.78 µM
CC(C)C(=O)c1c(C(F)(F)F)n([O-])c2ccccc2[n+]1=O = 16.2 µM
O=C1/C(=C/c2ccc(O)c(O)c2)CC/C1=C\c1ccc(O)c(O)c1 = 63.2 µM
COC(=O)c1ccc2c(c1)sc1nc(-c3ccc(OC)cc3)cn12 = > 100 µM
COc1cc(C2OC[C@@H]3C(=O)OC[C@H]23)cc(O)c1OC (stereo partly specified) = > 100 µM
Cc1cc2c(cc1Cl)SC(NNC1=NCCN1)=NS2(=O)=O = > 10 µM
COc1ccc(/C=C/C(=O)c2sc(-c3cccnc3)nc2C)cc1 = > 100 µM
CN1CC2=C(NC(=S)NC2c2ccccc2Cl)/C(=C/c2ccccc2Cl)C1 (stereo unspecified) = > 100 µM

Go through the items and report each one's TGI.
1. CN(C)CCOc1ccccc1NC1=C(Cl)C(=O)C(Nc2ccccc2OCCN(C)C)=C(Cl)C1=O
2. Cn1cc(-c2nnc(-c3ccc(Cl)cc3)[nH]c2=O)c2ccccc21
3. O=C(O)CCN(CCCN(CCC(=O)O)CCC(=O)O)CCC(=O)O

OUTPUT:
1. > 53.8 µM
2. > 61 µM
3. > 100 µM

* * *

Test system: LOX IMVI melanoma
EXPERIMENTAL DETAILS: NCI tumour cell line growth inhibition, 48 h
VALUE KIND: TGI (µM)
Numbers only, in µM.

Some solved cases for reference:
COc1ccc2c(c1)CCCc1c-2nc2ccccc2c1N = 20.9
C=C(Cl)C(C)(Cl)CCC(Cl)C(C)C (configuration not stated) = 47.6
N#Cc1c(-c2ccc(Cl)cc2)c2c([nH]c1=O)-c1cc([N+](=O)[O-])ccc1CCC2 = 37.9
NC(N)=Nc1ccc(/C=C2\C=Cc3ccccc32)cc1 = 3.02
Oc1ccccc1/C=N\NC(=S)N/N=C/c1ccccc1O = 27.7
CCN(CCO)CCNc1ccc(C)c2sc3ccccc3c(=O)c12 = 5.18

Go through the items and report each one's TGI.
1. O=C(CSSCC(=O)OCCS(=O)(=O)Nc1ccc(Br)cc1)OCCS(=O)(=O)Nc1ccc(Br)cc1
2. Cc1ccsc1-c1ccc2c(c1)COC2(CCCN(C)C)c1ccc(F)cc1 (configuration not stated)
3. COc1cc(C2C(=O)C(Cl)N2Nc2nc(C)cc(=O)[nH]2)cc(OC)c1OC (configuration not stated)

OUTPUT:
1: 42.3; 2: 3.04; 3: 27.5

* * *

Tested on: NCI-H226 lung
EXPERIMENTAL DETAILS: NCI tumour cell line growth inhibition, 48 h; in the data active = GI50 below about 0.43 µM; inactive = the rest
Use one of these outcomes when replying: active, inactive

Completed entries (count: 6):
O=C([CH-]C(=O)c1ccccc1)c1ccccc1.O=C([CH-]C(=O)c1ccccc1)c1ccccc1.O=C([CH-]C(=O)c1ccccc1)c1ccccc1.[Cl-].[Hf+4] = inactive
COc1ccc(NC(=O)c2ccc(NC3=C(Cl)C(=O)N(Cc4ccccc4)C3=O)cc2)c(OC)c1 = inactive
Cc1ccc(OCCOCCOCCOCCOCCOc2ccc(C)n(O)c2=S)c(=S)n1O = active
Cn1c(=O)c(Oc2ccc(F)cc2F)cc2cnc(NC3CCOCC3)nc21 = inactive
CC(C)Cc1ccc(C(C)C(=O)NCc2ccc(Cn3c(=O)sn(CCCI)c3=O)cc2)cc1 (configuration not stated) = inactive
O=C1CC(N2C(=O)/C(=C/C(Cl)=C\c3ccc([N+](=O)[O-])cc3)SC2=S)C(=O)N1c1ccc(O)cc1 (configuration not stated) = inactive

INPUT: How did this test come out for CC(C)(C)c1cc(-c2nc3ccc(N4CCN(CCO)CC4)cc3[nH]2)cc(C(C)(C)C)c1O ?
OUTPUT: inactive

* * *

Give TGI for every item shown.
System: NCI-H23 lung
EXPERIMENTAL DETAILS: NCI tumour cell line growth inhibition, 48 h

COc1ccc(N=Nc2c(N)nn(C)c2N)cc1 = > 100 µM
COc1ccc(N=Cc2ccc(N(CCC#N)S(=O)(=O)c3ccccc3)cc2C)cc1 = > 100 µM
O=C(O)c1c2c(cc3c(=O)cc(-c4ccccc4)oc13)CCCC2 = > 100 µM
N#CCc1nnc(N)o1 = > 100 µM
O=C(O)c1cn(C2CC2)c2cc(N3CCN(Cc4c(O)ccc5ccccc45)CC3)c(F)cc2c1=O = > 100 µM
CC(=O)NC1COC(COC(=O)CCCCCCCCCCNC(=O)c2ccc([N+](=O)[O-])c3c(=O)c4ccccc4[nH]c23)C(O)C1OC(C)C(=O)NC(C(=O)NC(CCC(N)=O)C(=O)OCc1ccccc1)C(C)C (stereo not given) = 27.3 µM

Go through the items and report each one's TGI.
1. COc1cc(C2C(=O)C(Cl)N2Nc2nc(C)cc(=O)[nH]2)cc(OC)c1OC (stereo not given)
2. Cc1ccc(C(=O)Nc2ncn(C3CC(O)C(CO)O3)c(=O)n2)cc1 (stereo not given)
3. O=C(O)CCN(CCCN(CCC(=O)O)CCC(=O)O)CCC(=O)O
4. COc1cccc(C2SCc3nc4ccccc4n32)c1 (stereo not given)

OUTPUT:
["50.3 µM", "> 100 µM", "> 100 µM", "> 100 µM"]

* * *

Tested on: LOX IMVI melanoma
EXPERIMENTAL DETAILS: NCI tumour cell line growth inhibition, 48 h
Give TGI for every item shown.

COC(=O)/N=[N+](\[O-])C(c1ccccc1)c1ccccc1 = > 100 µM
Cn1c2cn[nH]c(=O)c2c2ccc3ccccc3c21 = 53.8 µM
COc1ccc(-c2[nH]nc(N)c2-c2cc(OC)c(OC)c(OC)c2)cc1 = > 100 µM
O=C1[C@@H](O)[C@@H]2CCCC[C@@]23CCCN13 = > 100 µM
C/C(=C\C(=N\NC(=N)N)c1ccccc1)c1ccccc1 = 2.56 µM
COc1cccc(NC(=O)CC(=O)NN2C(=O)/C(=C/c3ccc(N(CCC#N)CCC#N)cc3)N=C2c2cc([N+](=O)[O-])ccc2Cl)c1 = > 100 µM

Go through the items and report each one's TGI.
1. O=C(O)CCN(CCCN(CCC(=O)O)CCC(=O)O)CCC(=O)O
2. CC1=CC(=O)N(n2c(Cc3ccc(Cl)cc3)n[nH]c2=O)C1=O
3. C/C=C(\C)C(=O)O[C@H]1C=CC(=O)O[C@H]1COC(=O)[C@H](C)O
4. COc1ccccc1NC(=O)CC(=O)N1N=C(c2ccccc2)C(N=Nc2ccc(Cl)cc2)C1=O (stereo not given)

OUTPUT:
["> 100 µM", "> 100 µM", "14.8 µM", "> 100 µM"]

* * *

Tested on: COLO 205 colon
EXPERIMENTAL DETAILS: NCI tumour cell line growth inhibition, 48 h
VALUE KIND: TGI (µM)
One number for each entry, in µM.

COc1cc(CNc2c3ccccc3nc3ccccc23)cc(OC)c1OC = 7.14

The record that follows has no TGI shown yet.
INPUT: Using the record for COc1cc(C2CC(=O)Nc3c2c(C)nn3-c2nc3ccccc3[nH]2)cc(OC)c1O (stereo not given) , report its TGI.
OUTPUT: 46

* * *

Tested on: NCI-H226 lung
EXPERIMENTAL DETAILS: NCI tumour cell line growth inhibition, 48 h
Give TGI for every item shown.

Some solved cases for reference:
COc1cccc(NC(=O)CC(=O)NN2C(=O)/C(=C/c3ccc(N(CCC#N)CCC#N)cc3)N=C2c2cc([N+](=O)[O-])ccc2Cl)c1 = 30.1 µM
CCNc1nnc(-c2ccccc2Nc2ccccc2-c2nnc(NCC)s2)s1 = 77.2 µM
Cc1cn(Cc2cn(CC3OC(n4cc(C)c(=O)[nH]c4=O)CC3O)nn2)c(=O)[nH]c1=O (stereo unspecified) = > 100 µM

Go through the items and report each one's TGI.
1. C=C1c2nc3ccccc3n2C=C(c2ccc(Cl)cc2)N1c1ccc(OCCN2CCCCC2)cc1
2. COc1ccc(OC)c(/C=C/c2ccnc3ccccc23)c1
3. CN(C)c1ccc(/C=C(\NC(=O)c2ccccc2)C(=O)Nc2cccc(C(=O)NCCCO)c2)cc1
4. C=CC1(c2ccc3ccccc3c2)OCC(CC)O1 (stereo unspecified)
5. CCCCCCCCCCCCC(Br)C(C)=O (stereo unspecified)
6. CC1(C)CCCCCCCCCC2CC2CCC(C)(C)C1=O (stereo unspecified)
7. CC(C)C(Sc1nc(-c2ccccc2)c(-c2ccccc2)[nH]1)c1n[nH]c(=S)n1-c1ccccc1 (stereo unspecified)
8. N#CCc1nnc(N)o1

OUTPUT:
1: > 100 µM; 2: 4.74 µM; 3: > 100 µM; 4: 81.4 µM; 5: > 100 µM; 6: 31.2 µM; 7: > 100 µM; 8: > 100 µM

Go through the items and report each one's TGI.
1. COC(=O)C(c1ccc(OC)cc1)N1C(=O)[C@@H](NC(=O)c2ccccc2)[C@H]1[C@@H](C)O (stereo partly specified)
2. Cc1ccc(-c2nnc3s/c(=C\c4ccc(N(C)C)cc4)c(=O)n23)cc1
3. C/C(=C\C(=N\NC(=N)N)c1ccccc1)c1ccccc1
4. O=C(O)Cc1ccc(N=Nc2c(O)c(C(=O)O)cc3ccccc23)cc1
5. Cc1ccccc1C(C(=O)NC1CCCCC1)N(C(=O)CNc1ccc(C#N)cc1)c1cccc(F)c1 (stereo unspecified)
6. COC(=O)c1ccc2c(c1)sc1nc(-c3ccc(OC)cc3)cn12
7. CCCCCCCCCCCCSC(=S)c1c(C)[nH]n(CCCCCCCCCCCC)c1=O

OUTPUT:
> 100 µM
> 100 µM
13 µM
> 100 µM
> 94.5 µM
> 100 µM
> 100 µM

Go through the items and report each one's TGI.
1. O=C1[C@@H](O)[C@@H]2CCCC[C@@]23CCCN13
2. CCC1(c2ccc(N)cc2)CCC(=O)NC1=O (stereo unspecified)
3. CCOC(=O)C1(N)CC1

OUTPUT:
["> 100 µM", "> 4820 µM", "> 100 µM"]
